From: ChEMBL document CHEMBL3045573

- Test system: Echinochloa crus-galli
- test_description: Herbicidal activity against Echinochloa crus-galli (barnyard grass) assessed as inhibition of seedling growth at 100 ug/mL for 65 hr at 28 +/- 1 degC by cup test
- Type: functional
- recorded_conditions: read-out: GI

{"smiles_notation": "CCOC(=O)c1c(C)nn2c(=O)n(-c3ccccc3C(F)(F)F)nnc12", "quantity_unit": "%", "inhibition of growth at 100 µg/mL": 6}
{"smiles_notation": "CCOC(=O)c1c(C)nn2c(=O)n(-c3cc(C(F)(F)F)ccc3Cl)nnc12", "quantity_unit": "%", "inhibition of growth at 100 µg/mL": 0}
{"smiles_notation": "CCOC(=O)c1c(C(F)(F)F)nn2c(=O)n(-c3cccc(C(F)(F)F)c3)nnc12", "quantity_unit": "%", "inhibition of growth at 100 µg/mL": 1}
{"smiles_notation": "CCCOc1cc(-n2nnc3c(C(=O)OCC)c(SC)nn3c2=O)c(F)cc1Cl", "quantity_unit": "%", "inhibition of growth at 100 µg/mL": 12}
